system: A498 renal; test: NCI-60 one-dose screen, 48 h; conditions: 10 µM unless noted
The panel holds about 83,000 compounds, 20% with a hit somewhere; the sample as a whole holds those more often. The source made the active and inactive calls. How the source made its calls: active means growth percent below 10; inactive means the rest.
Classes used: active, inactive

# Compound, Cat
records = [
    ("O=C1Nc2ccc(Br)cc2C12CC(c1ccccc1)=NN2 (stereo unspecified)", "inactive"),
    ("C/C(Cc1ccc(Cl)cc1)=C(\\c1ccc(OCCN2CCCCCC2)cc1)c1ccc(OC(=O)Cc2ccccc2)cc1", "inactive"),
    ("COc1ccc(-c2cn3c(ccc4ccccc43)n2)cc1", "inactive"),
    ("O=[N+]([O-])c1cccc(-c2nc3sccn3c2-c2ccnc(NCCCNS(=O)(=O)c3ccc(Br)cc3)n2)c1", "inactive"),
    ("CCN(CC)Cc1cc(Nc2c3ccc(Cl)cc3nc3c(C)cccc23)ccc1O", "active"),
    ("Cc1cc(N/N=C/c2nc(-c3ccc(Cl)cc3)oc2C)c2cc(Cl)ccc2n1", "inactive"),
    ("C(=N\\Nc1nnn(Cc2ccccc2)n1)/c1ccccc1", "inactive"),
    ("CCN(C(=O)CN1CCN(c2cc3c(cc2F)c(=O)c(C(=O)O)cn3CC)CC1)c1nc(-c2ccccc2)cs1", "active"),
    ("S=c1[nH]nc(CSc2ncnc3c2c(-c2ccccc2)cn3-c2ccc(Cl)cc2)o1", "inactive"),
    ("COc1nc2c(cc1S(=O)(=O)c1ccccc1)CCc1c-2cnn1Cc1ccccc1", "inactive"),
    ("c1ccc(Sc2ncnc3ccccc23)cc1", "inactive"),
    ("O=C1Nc2ccccc2/C1=C/C(=N/c1nnc(-c2ccccc2)s1)c1ccccc1", "inactive"),
    ("Nc1cccc(-c2nc3sccn3c2-c2ccnc(NCCCNS(=O)(=O)c3ccc(C(F)(F)F)cc3)n2)c1", "inactive"),
    ("Nc1ccc(N2CCOCC2)cc1", "inactive"),
    ("COc1cccc(-c2nc3sccn3c2-c2ccnc(NCCCNS(=O)(=O)c3ccccc3)c2)c1", "inactive"),
    ("O=C(CN1CCN(c2cc3c(cc2F)c(=O)c(C(=O)O)cn3C2CC2)CC1)Nc1nc(-c2ccc(Cl)cc2)cs1", "active"),
    ("Nc1nc(SCc2ccccc2)c2ncn(C3CCCC3)c2n1", "inactive"),
    ("CNC(=S)N/N=C/CSC/C=N/NC(=S)NC", "inactive"),
    ("COC(=O)C12C3C(=O)N(c4ccc(OC)cc4)C(=O)C3C(c3cn(-c4ccccc4)nc3C)N1[C@H](c1cn(-c3ccccc3)nc1C)[C@@H]1C(=O)N(c3ccc(OC)cc3)C(=O)[C@@H]12 (stereo partly specified)", "inactive"),
    ("N=S(=O)(NC(=O)c1ccc(Cl)cc1Cl)c1ccc(Br)s1 (stereo unspecified)", "inactive"),
    ("O=C1C2CC=CCC2C(=O)N1CNc1ccc(Cl)cc1 (stereo unspecified)", "inactive"),
]

---

Test system: PC-3 prostate
Assay: NCI-60 one-dose screen, 48 h
Conditions: 10 µM unless noted
Protocol: Growth inhibition of the PC-3 human tumor cell line is measured as a screen for anti-cancer activity. Cells are grown in 96 well plates and exposed to the test compound for 48 hours. Compounds are tested at a single concentration, which is 10^-5 M for most compounds. The reported endpoint is percent growth (GI% or GIPRCNT), where numbers from 0 - 100% represent growth inhibition, and numbers from -100% - 0 represent cell death. For example, a value of 40 represents 60% growth inhibition. […]
The panel holds about 83,000 compounds, 20% with a hit somewhere; the sample as a whole holds those more often. Calls of active or inactive are those of the source. How the source made its calls: active means growth percent below 10; inactive means the rest.
Classes used: True for active, False for inactive

# Molecule, Assayed Target, Cat
rows = [
    ("CC(=O)Oc1ccc(Nc2c3ccccc3nc3ccccc23)cc1", "PC-3 prostate", "True"),
    ("C/C(=C(/c1ccc(O)cc1)c1ccc(OCCN(C)C)cc1)c1ccccc1", "PC-3 prostate", "False"),
    ("CCCCCCCCCCCCCCCC(=O)OCC1OC(n2cnc3c(=S)nc(N)[nH]c32)C(OC(=O)CCCCCCCCCCCCCCC)C1OC(=O)CCCCCCCCCCCCCCC (stereo not given)", "PC-3 prostate", "False"),
    ("CCOC(=O)c1cnc2ccc(OC)cc2c1Nc1cccc(S(=O)(=O)NC)c1", "PC-3 prostate", "False"),
    ("COc1ccc(/C=C/C(=O)c2c(O)c(C)c(O)c3c2OC2=CC(O)=C(C(C)=O)C(=O)[C@]23C)cc1", "PC-3 prostate", "True"),
    ("COc1ccc(C(=O)/C=C/c2cc3ccccc3[nH]c2=O)cc1", "PC-3 prostate", "False"),
    ("CNCCCn1c2c(c3ccc([N+](=O)[O-])cc3c1=O)C(=O)c1cc(OC)cnc1-2", "PC-3 prostate", "True"),
    ("O=C1c2cccnc2C(=O)c2c1c(C(=O)OCCN1CCOCC1)c1ccccn21", "PC-3 prostate", "False"),
    ("COc1ccc(C/C(C)=C(\\c2ccc(OCCN3CCCCCC3)cc2)c2ccc(OC(=O)C3CCCCC3)cc2)cc1", "PC-3 prostate", "False"),
    ("C=C(C[n+]1ccccc1)[C@@H]1CC[C@]2(C(=O)OC)CC[C@]3(C)[C@H](CC[C@@H]4[C@@]5(C)CC[C@H](O)C(C)(C)[C@@H]5CC[C@]43C)[C@@H]12", "PC-3 prostate", "True"),
    ("COCCOC(=O)C1=C(C)NC(=S)NC1c1ccc2c(c1)OCO2 (stereo not given)", "PC-3 prostate", "False"),
    ("COc1ccc2nc3cc(Cl)ccc3c(N3CCN(c4nccc(Nc5ccccc5)n4)CC3)c2c1", "PC-3 prostate", "False"),
    ("Cc1ccc(C2CC3c4ccccc4C2C2CCCCN32)cc1 (stereo not given)", "PC-3 prostate", "False"),
    ("COc1c2ccccc2c(OC)c2[nH]c(=O)ccc12", "PC-3 prostate", "False"),
    ("Clc1nc(Cl)c2c3c(sc2n1)CCCC3", "PC-3 prostate", "False"),
    ("Cn1c2c(Cl)c(Cl)ccc2c2ccn3c(=O)c4ccccc4nc3c21", "PC-3 prostate", "False"),
    ("N#CC1=C(N)Oc2c(ccc3ccccc23)C1c1cccs1 (stereo not given)", "PC-3 prostate", "False"),
    ("C/C(Cc1ccc(Cl)cc1)=C(\\c1ccc(OCCN2CCCCCC2)cc1)c1ccc(OC(=O)Cc2ccccc2)cc1", "PC-3 prostate", "False"),
    ("CCN(CC)CCC(=O)Nc1ccc(Cn2nnc3c2C(=O)c2nnn(Cc4ccc(NC(=O)CCN(CC)CC)cc4)c2C3=O)cc1", "PC-3 prostate", "True"),
    ("O=C([C@@H](COCc1ccccc1)N1C(=O)[C@@H](N2C(=O)OC[C@@H]2c2ccccc2)[C@H]1/C=C/c1ccccc1)N1CCC(CCN2CCCCC2)CC1", "PC-3 prostate", "False"),
    ("CCOC(=O)CC(=O)c1c(C)cc(C)cc1C", "PC-3 prostate", "False"),
    ("O=C(O)c1cccc2c1-c1ccccc1C2=O", "PC-3 prostate", "False"),
    ("COc1ccc(-c2c(C)noc2-c2ccc(O)cc2O)cc1", "PC-3 prostate", "False"),
    ("C=C1CCC2C3(C)COC(c4ccc(SC)cc4)OC3CCC2(C)C1C/C=C1/C(=O)OCC1O (stereo not given)", "PC-3 prostate", "False"),
    ("CCCCOc1ccc(NC(=O)n2nc(NC(C)=O)c3cc(NC(C)=O)ccc32)cc1", "PC-3 prostate", "False"),
    ("O=C1CC(c2nc3ccccc3[nH]2)CN1C1CCCCC1 (stereo not given)", "PC-3 prostate", "False"),
    ("CN1CCN(Cc2ccc(NC(=O)c3cncc(C#Cc4cncc5nccnc45)c3)cc2C(F)(F)F)CC1", "PC-3 prostate", "False"),
    ("Nc1nc(-c2ccc(F)cc2)cc(-c2cnn(-c3ccccc3)n2)n1", "PC-3 prostate", "False"),
    ("Cc1cc(-c2nc3ccccc3s2)ccc1NC(=O)COc1ccc(Cl)cc1", "PC-3 prostate", "False"),
    ("CCCC(=O)Oc1ccc(/C(=C(/CC)Cc2ccccc2)c2ccc(OCCN3CCCC3)cc2)cc1", "PC-3 prostate", "False"),
    ("CCN(CC)CC(C)Nc1ccc([N+](=O)[O-])c2sc3ccccc3c(=O)c12 (stereo not given)", "PC-3 prostate", "False"),
    ("CC1=N/C(=C\\c2cccc(Br)c2)C(=O)O1", "PC-3 prostate", "False"),
    ("CSc1ncnc2c1ncn2C1CCCO1 (stereo not given)", "PC-3 prostate", "False"),
    ("O=C1c2ccccc2-c2nccc3cc(Cl)nc1c23", "PC-3 prostate", "True"),
    ("O=C(O)C(O)C(O)C(=O)O.[NH-]C1CCCCC1[NH-].[Pt+2] (stereo not given)", "PC-3 prostate", "False"),
    ("O=c1c2cccc3c(NC4CCCCC4)ccc(c32)c2nc3ccccc3n12", "PC-3 prostate", "False"),
    ("COc1cc2c(c(OC)c1OC)-c1ccc(N=NC(N)=S)c(=O)cc1[C@@H](NC(C)=O)CC2", "PC-3 prostate", "False"),
    ("COc1cc(C2CC(=O)c3c(C)nn(-c4nc5ccccc5[nH]4)c3C2)cc(OC)c1OC (stereo not given)", "PC-3 prostate", "False"),
    ("Cn1cc(-c2csc(-c3cn(C)c4ncccc34)n2)c2ccccc21", "PC-3 prostate", "False"),
    ("CCOC(=O)/C=C/c1ccc(C(=O)OCC)[nH]1", "PC-3 prostate", "False"),
]
